FYI, the data here is from paper PMC11671411.

- assay-system: UniProt:O00329
- Sequence (O00329 whole entry, canonical isoform): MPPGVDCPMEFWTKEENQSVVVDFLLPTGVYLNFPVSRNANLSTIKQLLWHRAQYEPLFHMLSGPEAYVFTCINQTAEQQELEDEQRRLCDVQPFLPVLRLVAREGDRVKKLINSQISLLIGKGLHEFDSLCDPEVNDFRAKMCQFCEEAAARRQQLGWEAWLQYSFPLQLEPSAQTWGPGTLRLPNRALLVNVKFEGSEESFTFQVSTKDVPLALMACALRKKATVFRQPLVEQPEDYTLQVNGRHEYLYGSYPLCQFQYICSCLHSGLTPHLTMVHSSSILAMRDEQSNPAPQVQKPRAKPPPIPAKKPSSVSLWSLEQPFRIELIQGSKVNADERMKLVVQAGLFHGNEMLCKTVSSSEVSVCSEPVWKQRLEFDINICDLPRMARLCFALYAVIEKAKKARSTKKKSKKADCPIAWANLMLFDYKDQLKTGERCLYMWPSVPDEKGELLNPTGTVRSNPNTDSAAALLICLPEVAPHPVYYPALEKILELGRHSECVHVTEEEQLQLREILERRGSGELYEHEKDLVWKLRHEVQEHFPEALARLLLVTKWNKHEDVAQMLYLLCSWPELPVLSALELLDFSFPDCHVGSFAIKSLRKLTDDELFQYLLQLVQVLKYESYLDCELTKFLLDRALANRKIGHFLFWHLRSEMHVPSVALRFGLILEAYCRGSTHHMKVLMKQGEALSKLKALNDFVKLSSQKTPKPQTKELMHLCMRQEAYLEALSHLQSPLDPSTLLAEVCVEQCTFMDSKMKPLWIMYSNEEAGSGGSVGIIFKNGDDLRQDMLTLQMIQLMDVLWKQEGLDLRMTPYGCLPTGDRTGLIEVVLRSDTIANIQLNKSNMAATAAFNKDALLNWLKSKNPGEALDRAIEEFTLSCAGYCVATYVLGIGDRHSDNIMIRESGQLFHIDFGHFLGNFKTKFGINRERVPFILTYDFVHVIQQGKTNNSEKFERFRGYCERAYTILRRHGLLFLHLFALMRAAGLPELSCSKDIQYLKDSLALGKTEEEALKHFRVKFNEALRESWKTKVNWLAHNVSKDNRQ
- assay-overview: PI 3-Kinase (human) HTRF enzyme assay with the PI3KCD isoform
readout-label: pIC50
One number for each entry, as −log10 of the molar value.

Recall and state the measured pIC50 for c1ccc2c(c1)c1ccccc1c1nc3c4ccccc4c4ccccc4c3nc21 [SBL-JP-0004, tetrabenzo[a,c,h,j]phenazine] . 6.70
